Taken from patent US20180086804A1.

# MEASUREMENT TARGET: T1, HLA-DR1 (HLA-DRB1*01:01) (human)
# T1 construct: mature; class II HLA molecule purified from homozygous EBV-transformed lymphoblastoid cells with antibody L243
# EXPERIMENT NOTES: competition ELISA vs biotin-HA 306-318;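 note: HLA and competitor incubated 24 to 72 h, maximal signal taken from wells lacking competitor, background from wells lacking HLA molecule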
No end group written: not given here.
Please note: relative affinity exactly at 500 is f. Only values below 500 get t.

[[record]]
binder = "LDYDMVHFPPSQIAA-NH2 [CCNB1 332-346]"
cat = "t"


Problem: Given the entry EKLSPEPILVDTASP-NH2 [CCNB1 113-127] , would its reported relative affinity be below 500?
Solution: f

Problem: One more binder: REVTGNMRAILIDWL-NH2 [CCNB1 195-209]
Solution: t

Problem: Do the same for QAVRPKYLLGREVTG-NH2 [CCNB1 185-199] please
Solution: t
